Record form. Attribute: pKi. Fill in for each entry.
Target: GABA-A receptor; alpha-5/beta-3/gamma-2 (Homo sapiens, UniProt P18507+P28472+P31644)
Experiment: Binding affinity for Gamma-aminobutyric acid A receptor alpha-5-beta-3-gamma-2
Format: protein-complex assay
One number for each entry, as −log10 of the molar value.

# count of solved cases: 5
                                   molecule  value
0  C#Cc1ccc2c(c1)C(=O)N1CC[C@H]1c1c(-c3nc(CC)no3)ncn1-2   7.90
1  C#Cc1ccc2c(c1)C(=O)N(C)Cc1c(C(=O)OC(C)(C)C)ncn1-2   9.40
2        CCc1ncn2c1CN(C)C(=O)c1cc(Cl)ccc1-2   6.74
3  CN1Cc2c(C(=O)OC(C)(C)C)ncn2-c2ccc(Cl)cc2C1=O   9.19
4  CCOC(=O)c1ncn2c1CN(C)C(=O)c1cc(N=[N+]=[N-])ccc1-2 [Ro-154513]   9.57

Parameters: items (list). Returns: pKi for each item.
1. CN1Cc2c(C(=O)OC(C)(C)C)ncn2-c2ccc(Br)cc2C1=O
2. CCOC(=O)c1ncn2c1CN(C)C(=O)c1cc(C#C[Si](C)(C)C)ccc1-2
3. C#Cc1ccc2c(c1)C(=O)N1CC[C@H]1c1c(-c3nc(-c4ccccc4)no3)ncn1-2
4. CC(=O)c1ncn2c1CN(C)C(=O)c1cc(Cl)ccc1-2

9.33
8.30
6.43
5.58

----------
Record form. Attribute: Ki. Fill in for each entry.
Target: GABA-A receptor; alpha-6/beta-3/gamma-2 (Homo sapiens, UniProt P18507+P28472+Q16445)
Assay: Binding affinity against Gamma-aminobutyric acid A receptor alpha-6-beta-3-gamma-2
Format: protein-complex assay

# count of solved cases: 3
>>> print(df.to_string())
                                   molecule                               measured_on  measurement_kind      value
0          CN1Cc2c(CO)ncn2-c2ccc(Cl)cc2C1=O  GABA-A receptor; alpha-6/beta-3/gamma-2 (Homo sapiens, UniProt P18507+P28472+Q16445)                Ki   > 300 nM
1  CN1Cc2c(C(=O)OC(C)(C)C)ncn2-c2ccc(N=C=S)cc2C1=O  GABA-A receptor; alpha-6/beta-3/gamma-2 (Homo sapiens, UniProt P18507+P28472+Q16445)                Ki    30.7 nM
2  CCOC(=O)c1ncn2c1[C@H]1CCCN1C(=O)c1cc(C#C[Si](C)(C)C)ccc1-2  GABA-A receptor; alpha-6/beta-3/gamma-2 (Homo sapiens, UniProt P18507+P28472+Q16445)                Ki  > 1000 nM

Parameters: items (list). Returns: Ki for each item.
1. CCOCc1ncn2c1CN(C)C(=O)c1cc(Cl)ccc1-2
2. CCOC(=O)c1ncn2c1[C@@H]1CCN1C(=O)c1cc(Br)ccc1-2
3. CN1Cc2c(CCl)ncn2-c2ccc(Cl)cc2C1=O

1. > 300 nM
2. 31 nM
3. > 300 nM

----------
Target: GABA-A receptor; alpha-6/beta-3/gamma-2 (Homo sapiens, UniProt P18507+P28472+Q16445)
Assay: Binding affinity against Gamma-aminobutyric acid A receptor alpha-6-beta-3-gamma-2
Record form. Attribute: pKi. Fill in for each entry.
Give bare numbers, as −log10 of the molar value.

# count of solved cases: 2
>>> df
                                   molecule  value
0  CN1Cc2c(C(=O)OC(C)(C)C)ncn2-c2ccc(Br)cc2C1=O   8.03
1  COc1ccc2c(c1)C(=O)N(C)Cc1c(C(=O)OC(C)(C)C)ncn1-2   8.08

Parameters: items (list). Returns: pKi for each item.
1. CCOC(=O)c1ncn2c1CN(C)C(=O)c1cc(CC)ccc1-2
2. CCOC(=O)c1ncn2c1[C@@H]1CCCN1C(=O)c1cc(OC)ccc1-2
3. CN1Cc2c(C(=O)OC(C)(C)C)ncn2-c2ccc(C#CC[Si](C)(C)C)cc2C1=O

1: 6.75; 2: 7.08; 3: 6.52

Return reported pKi; argument: `CCCCCc1ncn2c1CN(C)C(=O)c1cc(Cl)ccc1-2`
6.02

----------
Target: GABA-A receptor; alpha-5/beta-3/gamma-2 (Homo sapiens, UniProt P18507+P28472+P31644)
Assay: Binding affinity for Gamma-aminobutyric acid A receptor alpha-5-beta-3-gamma-2
Record form. Attribute: pKi. Fill in for each entry.
One number for each entry, as −log10 of the molar value.

# count of solved cases: 3
                                   molecule  measurement_kind  value
0  CN1Cc2c(C(=O)OC(C)(C)C)ncn2-c2ccc(O)cc2C1=O               pKi   9.85
1       COCc1ncn2c1CN(C)C(=O)c1cc(Cl)ccc1-2               pKi   7.41
2  CCOC(=O)c1ncn2c1CN(C)C(=O)c1cc(OCC)ccc1-2               pKi   8.97

Parameters: items (list). Returns: pKi for each item.
1. C=Cc1ccc2c(c1)C(=O)N(C)Cc1c(C(=O)OCC)ncn1-2
2. CCOC(=O)c1ncn2c1CN(C)C(=O)c1cc(CC)ccc1-2
3. CN1Cc2c(CCl)ncn2-c2ccc(Cl)cc2C1=O
4. CCOC(=O)c1ncn2c1[C@@H]1CCN1C(=O)c1cc(C#C[Si](C)(C)C)ccc1-2

1. 9.40
2. 8.82
3. 7.55
4. 8.59

Parameters: items (list). Returns: pKi for each item.
1. CCOCc1ncn2c1CN(C)C(=O)c1cc(Cl)ccc1-2
2. C#Cc1ccc2c(c1)C(=O)N1CCC[C@H]1c1c(-c3nc(C(C)C)no3)ncn1-2
3. C#Cc1ccc2c(c1)C(=O)N(C)Cc1c(C(=O)OCC)ncn1-2

1. 7.08
2. 8.32
3. 9.31

----------
Biological target: GABA-A receptor; alpha-2/beta-3/gamma-2 (Homo sapiens, UniProt P18507+P28472+P47869)
Sequence (P18507 whole entry): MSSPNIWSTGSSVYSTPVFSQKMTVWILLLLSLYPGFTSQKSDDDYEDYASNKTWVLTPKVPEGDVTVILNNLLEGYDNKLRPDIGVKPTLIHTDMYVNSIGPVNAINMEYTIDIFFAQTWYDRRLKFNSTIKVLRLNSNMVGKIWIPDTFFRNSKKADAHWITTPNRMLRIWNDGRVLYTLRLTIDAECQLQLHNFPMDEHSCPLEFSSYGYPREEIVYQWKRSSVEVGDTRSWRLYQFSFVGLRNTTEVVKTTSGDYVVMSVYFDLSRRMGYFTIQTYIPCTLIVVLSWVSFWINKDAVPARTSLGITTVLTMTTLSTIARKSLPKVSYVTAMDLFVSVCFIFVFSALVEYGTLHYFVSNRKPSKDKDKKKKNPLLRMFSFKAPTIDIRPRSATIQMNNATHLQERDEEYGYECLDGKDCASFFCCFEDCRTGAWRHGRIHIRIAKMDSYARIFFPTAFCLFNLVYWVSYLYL
Sequence (P28472 whole entry): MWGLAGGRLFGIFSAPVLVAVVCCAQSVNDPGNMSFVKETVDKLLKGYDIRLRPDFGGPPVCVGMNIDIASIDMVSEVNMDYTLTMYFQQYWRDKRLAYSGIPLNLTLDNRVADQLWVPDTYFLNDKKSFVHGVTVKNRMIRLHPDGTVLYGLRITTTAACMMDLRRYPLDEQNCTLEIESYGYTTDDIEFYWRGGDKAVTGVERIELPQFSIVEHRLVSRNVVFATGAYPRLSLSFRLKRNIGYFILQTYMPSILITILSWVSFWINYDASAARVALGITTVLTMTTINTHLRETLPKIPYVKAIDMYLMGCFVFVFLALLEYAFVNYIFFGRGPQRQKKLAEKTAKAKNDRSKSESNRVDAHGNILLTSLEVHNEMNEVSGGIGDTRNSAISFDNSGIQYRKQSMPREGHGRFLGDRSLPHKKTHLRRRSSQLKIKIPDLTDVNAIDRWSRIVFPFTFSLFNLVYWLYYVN
Sequence (P47869 whole entry): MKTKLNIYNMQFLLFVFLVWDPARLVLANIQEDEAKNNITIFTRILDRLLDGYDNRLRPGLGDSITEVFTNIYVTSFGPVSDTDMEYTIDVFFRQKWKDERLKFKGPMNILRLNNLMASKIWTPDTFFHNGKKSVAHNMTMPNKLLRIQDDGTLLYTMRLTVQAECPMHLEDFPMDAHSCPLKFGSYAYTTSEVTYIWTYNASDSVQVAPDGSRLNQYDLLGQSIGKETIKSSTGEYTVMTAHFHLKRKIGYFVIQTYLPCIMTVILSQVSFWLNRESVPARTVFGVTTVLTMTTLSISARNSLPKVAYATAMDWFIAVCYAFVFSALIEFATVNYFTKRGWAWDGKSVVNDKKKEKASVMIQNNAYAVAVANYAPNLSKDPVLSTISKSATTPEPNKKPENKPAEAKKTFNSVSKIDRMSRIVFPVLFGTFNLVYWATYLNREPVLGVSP
Test: Binding affinity tested against alpha-2-beta-3-gamma-2 GABAA/BzR receptor subtype.
Format: protein-complex assay
measurement-kind: Ki
Answers without a unit are incomplete; give the number and then its unit.

# count of solved cases: 4
>>> df
                                   molecule  measurement_kind   value
0  C#Cc1ccc2c(c1)C(=O)N1CCC[C@H]1c1c(C(=O)OCC)ncn1-2                Ki   44 nM
1  CCOC(=O)c1ncn2c1CN(C)C(=O)c1cc(C#N)ccc1-2                Ki   45 nM
2  CCc1ccc2c(c1)C(=O)N(C)Cc1c(C(=O)OC(C)(C)C)ncn1-2                Ki   56 nM
3  CCOC(=O)c1ncn2c1CN(C)C(=O)c1cc(C#C[Si](C)(C)C)ccc1-2                Ki  142 nM

Please turn your attention to the following entry.
Return reported Ki; argument: `C#Cc1ccc2c(c1)C(=O)N1CCC[C@H]1c1c(-c3nc(CC)no3)ncn1-2`
40 nM
